Biological target: T1, colFD-NL
T1 chain: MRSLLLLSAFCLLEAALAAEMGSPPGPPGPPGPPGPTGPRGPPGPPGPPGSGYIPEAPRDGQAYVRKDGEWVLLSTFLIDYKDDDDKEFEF
Assay: BRET
Conditions: chain shown with the change; in the ER of HEK293 cells; n = 4; parent: est. 100; read off a plot
observation_type: percent of parent
Number first, unit second.

For orientation, consider the following solved cases.
Hsp47-HT, P19324 R355A (protein) AEVKKPLEAAAPGTAEKLSSKATTLAERSTGLAFSLYQAMAKDQAVENILLSPLVVASSLGLVSLGGKATTASQAKAVLSAEKLRDEEVHTGLGELLRSLSNSTARNVTWKLGSRLYGPSSVSFADDFVRSSKQHYNCEHSKINFRDKRSALQSINEWASQTTDGKLPEVTKDVERTDGALLVNAMFFKPHWDEKFHHKMVDNRGFMVTRSYTVGVTMMHRTGLYNYYDDEKEKLQMVEMPLAHKLSSLIILMPHHVEPLERLEKLLTKEQLKAWMGKMQKKAVAISLPKGVVEVTHDLQKHLAGLGLTEAIDKNKADLSRMSGKKDLYLASVFHATAFEWDTEGNPFDQDIYGAEELRSPKLFYADHPFIFLVRDNQSGSLLFIGRLVRPKGDKMRDEL	96%
Hsp47-HT, P19324 E356A (protein) AEVKKPLEAAAPGTAEKLSSKATTLAERSTGLAFSLYQAMAKDQAVENILLSPLVVASSLGLVSLGGKATTASQAKAVLSAEKLRDEEVHTGLGELLRSLSNSTARNVTWKLGSRLYGPSSVSFADDFVRSSKQHYNCEHSKINFRDKRSALQSINEWASQTTDGKLPEVTKDVERTDGALLVNAMFFKPHWDEKFHHKMVDNRGFMVTRSYTVGVTMMHRTGLYNYYDDEKEKLQMVEMPLAHKLSSLIILMPHHVEPLERLEKLLTKEQLKAWMGKMQKKAVAISLPKGVVEVTHDLQKHLAGLGLTEAIDKNKADLSRMSGKKDLYLASVFHATAFEWDTEGNPFDQDIYGRAELRSPKLFYADHPFIFLVRDNQSGSLLFIGRLVRPKGDKMRDEL	95%

Turning now to a further binder:
What value of measured percent of parent is listed for Hsp47-HT, P19324 I352A (protein) AEVKKPLEAAAPGTAEKLSSKATTLAERSTGLAFSLYQAMAKDQAVENILLSPLVVASSLGLVSLGGKATTASQAKAVLSAEKLRDEEVHTGLGELLRSLSNSTARNVTWKLGSRLYGPSSVSFADDFVRSSKQHYNCEHSKINFRDKRSALQSINEWASQTTDGKLPEVTKDVERTDGALLVNAMFFKPHWDEKFHHKMVDNRGFMVTRSYTVGVTMMHRTGLYNYYDDEKEKLQMVEMPLAHKLSSLIILMPHHVEPLERLEKLLTKEQLKAWMGKMQKKAVAISLPKGVVEVTHDLQKHLAGLGLTEAIDKNKADLSRMSGKKDLYLASVFHATAFEWDTEGNPFDQDAYGREELRSPKLFYADHPFIFLVRDNQSGSLLFIGRLVRPKGDKMRDEL ?
86%
